meta.source: patent US20140179681A1

Exercise: state measured ICW 1 for each of the compounds provided.
Biological target: EGFR (Homo sapiens, UniProt P00533)
Construct: host or cells: A431
Sequence (P00533 25-1210): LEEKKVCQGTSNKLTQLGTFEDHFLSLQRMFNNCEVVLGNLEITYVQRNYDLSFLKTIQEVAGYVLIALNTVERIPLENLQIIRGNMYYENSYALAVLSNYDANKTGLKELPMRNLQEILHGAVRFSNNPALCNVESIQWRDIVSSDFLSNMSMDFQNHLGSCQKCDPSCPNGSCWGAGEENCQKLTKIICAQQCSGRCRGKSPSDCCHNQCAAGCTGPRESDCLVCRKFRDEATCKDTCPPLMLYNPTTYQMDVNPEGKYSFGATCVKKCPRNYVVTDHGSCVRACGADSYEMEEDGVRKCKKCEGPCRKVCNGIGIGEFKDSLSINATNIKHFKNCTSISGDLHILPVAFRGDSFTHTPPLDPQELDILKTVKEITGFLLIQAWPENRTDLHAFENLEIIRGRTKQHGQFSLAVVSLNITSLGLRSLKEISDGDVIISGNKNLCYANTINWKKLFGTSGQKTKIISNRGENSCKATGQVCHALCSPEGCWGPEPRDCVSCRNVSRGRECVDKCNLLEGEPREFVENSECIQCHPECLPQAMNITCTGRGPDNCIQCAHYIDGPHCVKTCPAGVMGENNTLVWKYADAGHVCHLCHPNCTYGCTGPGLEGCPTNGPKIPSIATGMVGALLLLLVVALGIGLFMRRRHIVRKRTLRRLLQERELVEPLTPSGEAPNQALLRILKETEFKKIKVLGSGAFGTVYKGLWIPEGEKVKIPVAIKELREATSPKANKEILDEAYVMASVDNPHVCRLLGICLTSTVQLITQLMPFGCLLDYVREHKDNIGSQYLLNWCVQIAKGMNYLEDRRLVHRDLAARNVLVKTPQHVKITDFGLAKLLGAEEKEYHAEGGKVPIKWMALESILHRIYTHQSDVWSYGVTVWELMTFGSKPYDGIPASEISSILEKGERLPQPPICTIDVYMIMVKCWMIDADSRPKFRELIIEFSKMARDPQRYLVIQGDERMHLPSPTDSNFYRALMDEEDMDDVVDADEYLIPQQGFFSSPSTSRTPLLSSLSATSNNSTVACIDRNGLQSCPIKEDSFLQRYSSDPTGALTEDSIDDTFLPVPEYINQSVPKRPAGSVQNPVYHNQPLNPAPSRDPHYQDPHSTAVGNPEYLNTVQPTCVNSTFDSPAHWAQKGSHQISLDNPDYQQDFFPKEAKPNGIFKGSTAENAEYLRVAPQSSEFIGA
Assay: EGFR in-cell Western (ICW) screening protocol (EGFR inhibition assay)
Assay type: cell-based
Parameters: unit not given here
Details: ICW assay, run 1
Counter-ions that a name gives are not always drawn.
Give bare numbers.

| compound | ICW 1 |
| --- | --- |
| Cc1nc(Nc2nc(=O)cc(-c3ccccc3)[nH]2)nc2c(C)cccc12 | 22.54 |
| Cc1ccc2c(C)nc(Nc3nc(C)cc(=O)[nH]3)nc2c1 [11725 + TFA] | 26.65 |
| CCCCc1c(C)nc(Nc2nc(C)c3ccccc3n2)[nH]c1=O [12743 + TFA] | 9.17 |
| COc1cccc(-c2cc(=O)[nH]c(Nc3nc(C)c4cccc(OC)c4n3)n2)c1 [11513 + TFA] | 32.64 |

stdin: Any idea what ICW 1 was measured for Cc1nc(Nc2nc(=O)cc(CSc3ccc(Cl)cc3)[nH]2)nc2ccccc12 [11583 + TFA] ?
stdout: 47.93
